Experiment: Linezolid concentration in blood plasma of beagle dogs after rectal administration of one suppository
Assay type: in vivo
Settings: dog, other: rectal, 600 mg, Example 5 particulate dispersion suppository, 600 mg linezolid, Dog 4 (12.5 kg), 3 h
endpoint label: concentration at 3 h (ng/mL)
Write the value in ng/mL as a bare number.

Exam item: Query: concentration at 3 h; subject: CC(=O)NC[C@H]1CN(c2ccc(N3CCOCC3)c(F)c2)C(=O)O1 [Linezolid]
Marked response: 7480

* * *

Assay: Linezolid concentration in blood plasma of beagle dogs after rectal administration of one suppository
Format: in vivo
Conditions: dog, other: rectal, 20 mg, Example 2 solution suppository, 20 mg linezolid, Dog 4 (12.2 kg), 0.25 h
Description: One 20 mg linezolid suppository prepared as above was rectally administered to each of four beagle dogs, and the concentration of linezolid in blood plasma of the dogs was determined at different times after administration, as presented in Table 2. One 600 mg linezolid suppository prepared as above was rectally administered to each of four beagle dogs and the concentration of linezolid in blood plasma of the dogs was determined at different times after administration, as presented in Table 3.
endpoint label: concentration at 0.25 h (ng/mL)
Write the number in ng/mL without appending the unit.

Exam item: What does the data say about its concentration at 0.25 h? Entry: CC(=O)NC[C@H]1CN(c2ccc(N3CCOCC3)c(F)c2)C(=O)O1 [Linezolid]
Marked response: 80.7

* * *

Assay: Linezolid concentration in blood plasma of beagle dogs after rectal administration of one suppository
Assay type: in vivo
Settings: dog, other: rectal, 600 mg, Example 5 particulate dispersion suppository, 600 mg linezolid, Dog 3 (10.1 kg), 0.75 h
endpoint label: concentration at 0.75 h (ng/mL)
Hi! Could you send only the number? It should be in ng/mL, unit omitted.

Exam item: Any idea what its concentration at 0.75 h is? The molecule is `CC(=O)NC[C@H]1CN(c2ccc(N3CCOCC3)c(F)c2)C(=O)O1`
Marked response: 1680

* * *

Experiment: Linezolid concentration in blood plasma of beagle dogs after rectal administration of one suppository
Format: in vivo
Conditions: dog, other: rectal, 20 mg, Example 2 solution suppository, 20 mg linezolid, Dog 4 (12.2 kg), 2.5 h
endpoint label: concentration at 2.5 h (µg/mL)
Enter your answer as a number in µg/mL; do not include the unit.

Exam item: Item CC(=O)NC[C@H]1CN(c2ccc(N3CCOCC3)c(F)c2)C(=O)O1 [Linezolid] has what recorded concentration at 2.5 h?
Marked response: 0.55

* * *

Test: Linezolid concentration in blood plasma of beagle dogs after rectal administration of one suppository
Format: in vivo
Settings: dog, other: rectal, 600 mg, Example 5 particulate dispersion suppository, 600 mg linezolid, Dog 2 (13.4 g), 0.75 h
endpoint label: concentration at 0.75 h (ng/mL)
Only the number, expressed in ng/mL, is required.

Exam item: Can you share its concentration at 0.75 h? I mean this molecule: `CC(=O)NC[C@H]1CN(c2ccc(N3CCOCC3)c(F)c2)C(=O)O1`
Marked response: 1940

* * *

Assay: Linezolid concentration in blood plasma of beagle dogs after rectal administration of one suppository
Assay type: in vivo
Settings: dog, other: rectal, 600 mg, Example 5 particulate dispersion suppository, 600 mg linezolid, Dog 1 (15.0 kg), 2 h
endpoint label: concentration at 2 h (µg/mL)
Please reply with the bare figure in µg/mL and do not write the unit itself.

Exam item: Entry under review: `CC(=O)NC[C@H]1CN(c2ccc(N3CCOCC3)c(F)c2)C(=O)O1` . Reported concentration at 2 h?
Marked response: 7.23

* * *

Assay: Linezolid concentration in blood plasma of beagle dogs after rectal administration of one suppository
Assay type: in vivo
Details: dog, other: rectal, 20 mg, Example 2 solution suppository, 20 mg linezolid, Dog 1 (15.2 kg), 0.5 h
endpoint label: concentration at 0.5 h

Exam item: Looking for the measured concentration at 0.5 h of `CC(=O)NC[C@H]1CN(c2ccc(N3CCOCC3)c(F)c2)C(=O)O1` , can you help?
Marked response: 132 ng/mL

* * *

Assay: Linezolid concentration in blood plasma of beagle dogs after rectal administration of one suppository
Format: in vivo
Conditions: dog, other: rectal, 20 mg, Example 2 solution suppository, 20 mg linezolid, Dog 1 (15.2 kg), 2.5 h
endpoint label: concentration at 2.5 h (ng/mL)
Provide only the numeric value, understood in ng/mL.

Exam item: Dear colleague, I am looking for the recorded concentration at 2.5 h of the following molecule: CC(=O)NC[C@H]1CN(c2ccc(N3CCOCC3)c(F)c2)C(=O)O1 [Linezolid]
Marked response: 417

* * *

Experiment: Linezolid concentration in blood plasma of beagle dogs after rectal administration of one suppository
Type: in vivo
Conditions: dog, other: rectal, 600 mg, Example 5 particulate dispersion suppository, 600 mg linezolid, Dog 3 (10.1 kg), 3 h
Method: One 20 mg linezolid suppository prepared as above was rectally administered to each of four beagle dogs, and the concentration of linezolid in blood plasma of the dogs was determined at different times after administration, as presented in Table 2. One 600 mg linezolid suppository prepared as above was rectally administered to each of four beagle dogs and the concentration of linezolid in blood plasma of the dogs was determined at different times after administration, as presented in Table 3.
endpoint label: concentration at 3 h (ng/mL)
Field: numeric (ng/mL). Do not append units.

Exam item: Would you kindly share the measured concentration at 3 h for CC(=O)NC[C@H]1CN(c2ccc(N3CCOCC3)c(F)c2)C(=O)O1 [Linezolid] ?
Marked response: 6570

* * *

Test: Linezolid concentration in blood plasma of beagle dogs after rectal administration of one suppository
Format: in vivo
Conditions: dog, other: rectal, 600 mg, Example 5 particulate dispersion suppository, 600 mg linezolid, Dog 3 (10.1 kg), 1 h
endpoint label: concentration at 1 h

Exam item: # lookup: concentration at 1 h of `CC(=O)NC[C@H]1CN(c2ccc(N3CCOCC3)c(F)c2)C(=O)O1`
Marked response: 2540 ng/mL

* * *

Assay: Linezolid concentration in blood plasma of beagle dogs after rectal administration of one suppository
Type: in vivo
Settings: dog, other: rectal, 20 mg, Example 2 solution suppository, 20 mg linezolid, Dog 2 (13.7 kg), 2 h
endpoint label: concentration at 2 h (µg/mL)
Hi! Could you send only the number? It should be in µg/mL, unit omitted.

Exam item: Any idea what its concentration at 2 h is? The compound is `CC(=O)NC[C@H]1CN(c2ccc(N3CCOCC3)c(F)c2)C(=O)O1`
Marked response: 0.238

* * *

Experiment: Linezolid concentration in blood plasma of beagle dogs after rectal administration of one suppository
Type: in vivo
Settings: dog, other: rectal, 600 mg, Example 5 particulate dispersion suppository, 600 mg linezolid, Dog 3 (10.1 kg), 0.25 h
endpoint label: concentration at 0.25 h

Exam item: What value of measured concentration at 0.25 h is listed for `CC(=O)NC[C@H]1CN(c2ccc(N3CCOCC3)c(F)c2)C(=O)O1` ?
Marked response: 444 ng/mL

* * *

Experiment: Linezolid concentration in blood plasma of beagle dogs after rectal administration of one suppository
Format: in vivo
Conditions: dog, other: rectal, 20 mg, Example 2 solution suppository, 20 mg linezolid, Dog 2 (13.7 kg), 3 h
endpoint label: concentration at 3 h (ng/mL)
Field: numeric (ng/mL). Do not append units.

Exam item: Entry `CC(=O)NC[C@H]1CN(c2ccc(N3CCOCC3)c(F)c2)C(=O)O1` has what concentration at 3 h?
Marked response: 146

* * *

Assay: Linezolid concentration in blood plasma of beagle dogs after rectal administration of one suppository
Type: in vivo
Details: dog, other: rectal, 600 mg, Example 5 particulate dispersion suppository, 600 mg linezolid, Dog 1 (15.0 kg), 2.5 h
endpoint label: concentration at 2.5 h (ng/mL)
Numbers only here, please. The scale is ng/mL.

Exam item: Recorded concentration at 2.5 h for CC(=O)NC[C@H]1CN(c2ccc(N3CCOCC3)c(F)c2)C(=O)O1 [Linezolid] , please?
Marked response: 7980

* * *

Assay: Linezolid concentration in blood plasma of beagle dogs after rectal administration of one suppository
Format: in vivo
Settings: dog, other: rectal, 600 mg, Example 5 particulate dispersion suppository, 600 mg linezolid, Dog 2 (13.4 g), 2.5 h
endpoint label: concentration at 2.5 h (ng/mL)
// note: answer is a bare numeric in ng/mL

Exam item: Entry `CC(=O)NC[C@H]1CN(c2ccc(N3CCOCC3)c(F)c2)C(=O)O1` has what concentration at 2.5 h?
Marked response: 5010

* * *

Test: Linezolid concentration in blood plasma of beagle dogs after rectal administration of one suppository
Format: in vivo
Settings: dog, other: rectal, 600 mg, Example 5 particulate dispersion suppository, 600 mg linezolid, Dog 4 (12.5 kg), 2.5 h
endpoint label: concentration at 2.5 h
Returns: string containing the numeric result and its unit.

Exam item: Query: concentration at 2.5 h; subject: CC(=O)NC[C@H]1CN(c2ccc(N3CCOCC3)c(F)c2)C(=O)O1 [Linezolid]
Marked response: 6060 ng/mL

All values here come from patent US20030008012A1.
